assay details: qHTS for differential inhibitors of proliferation of Plasmodium falciparum line D10 (AID 1877);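 further: parasites grown with compound for 72 h before DNA staining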
stated conditions: series mostly up to 28.7 µM
Results filed as inconclusive are left out. Calls of active or inactive are those of the source. The call rests on the fitted dose curve; in most records, active means well fitted curve in the direction sought with a large enough effect; inconclusive means small, poorly fitted or top-dose-only effect, or another doubt; inactive means no such curve, though single readings can be large or run the other way.
Outcome codes: True = active, False = inactive

>>> qualitative_label("O=C(Nc1cccc(C(=O)Nc2ccc(S(=O)(=O)O)c3cc(S(=O)(=O)O)cc(S(=O)(=O)O)c23)c1)Nc1cccc(C(=O)Nc2ccc(S(=O)(=O)O)c3cc(S(=O)(=O)O)cc(S(=O)(=O)O)c23)c1")
"False"
>>> qualitative_label("CCCCN1CCC(n2c(=O)[nH]c3ccccc32)CC1")
"False"
>>> qualitative_label("COc1ccccc1CNCCCCCCNCCCCCCCCNCCCCCCNCc1ccccc1OC")
"True"
>>> qualitative_label("NCCCCC(=O)O")
"False"
>>> qualitative_label("O=C(/C=C/c1ccc(O)cc1)c1ccc(O)cc1O")
"True"
>>> qualitative_label("O=C(c1cc(O)c(O)c([N+](=O)[O-])c1)c1ccccc1F")
"False"
>>> qualitative_label("COc1cc(OC)c(/C=C2/C(=O)Nc3ccccc32)c(OC)c1")
"False"
>>> qualitative_label("Oc1cc2c(cc1O)CN(C(=S)NCCc1ccc(Cl)cc1)CCC2")
"True"
>>> qualitative_label("Cc1ccccc1CNc1ncnc2c1ncn2C1OC(CO)C(O)C1O (stereo not given)")
"False"
>>> qualitative_label("O=C(O)/C=C/C(O)c1ccc(Cl)cc1 (stereo not given)")
"False"
